Hey, just so you know, these numbers are from ChEMBL document CHEMBL4823283.

test: Inhibition of calcineurin (unknown origin); set-up: species or system Homo sapiens
PROPERTY MEASURED: pIC50
Scale for pIC50: -log10 of concentration given in mol/L; no unit attached.

Report pIC50 for `CC1=CC(=O)CC(C)(C)[C@@]1(O)/C=C/[C@@H](C)O` please.
4.82

* * *

test system: Splenocyte; experiment: Cytotoxicity against mouse splenocytes assessed as cell survival in presence of ConA measured after 44 hrs by CCK-8 assay; type: functional, cell-based
PROPERTY MEASURED: IC50 (µM)
Give the value, in units of µM, as a plain number.

Report IC50 for CC1=CC(=O)CC(C)(C)[C@@]1(O)/C=C/[C@@H](C)O [BLUMENOL A] please.
18.7
